Test system: MCF-7 cancer cells
protocol: In vitro cancer cell cytotoxicity of pyridinium salts, MCF-7
Type: cell-based
reported-conditions: Homo sapiens, MCF7; MCF-7 cells, growth inhibition
From the text: The 2-ethynyl-1-prop-2-ynyl-pyridinium triflate salt has less activity in the in vitro cytotoxicity assay, perhaps due to the instability of this compound in nucleophilic solvents. The IC50 (50% Inhibition Concentration) is defined as the test compound concentration where the increase from time 0 in the number or mass of treated cells is only 50% as much as the corresponding increase in the vehicle-control at the end of experiment.
pIC50: −log10 of the molar value.
Binary classification by pIC50, with 5 as an inclusive lower bound for criterion met; all other cases are criterion not met.

- C#CC[n+]1ccccc1CCc1ccccc1 [drawing 133]: criterion not met
- C#CC[n+]1ccccc1C#Cc1ccccc1 [drawing 129]: criterion met
- C#CC[n+]1ccccc1C#C [drawing 132]: criterion not met
